Taken from patent US5516797A.

Tested on: PBLs stimulated with JVM human viral transformed B lymphoblastoid cells
protocolText: MLR bioassay JVM: inhibition of proliferation in mixed lymphocyte reaction
Format: cell-based
runConditions: Lymphoblastoid cell, pulsed on day 6, harvested 24 h later
We begin with a simple list: items and their reported IC50.

* COc1cc(C(=O)C(=O)N2CCCC[C@H]2C(=O)OCc2cccc(Oc3ccccc3)c2)cc(OC)c1OC [Compound 61] | > 10 µM
* O=C(C(=O)N1CCCC[C@H]1C(=O)OCc1ccccc1)C1CCCCC1 [Compound 40] | > 10 µM

Lab note: COc1cc(C(=O)C(=O)N2CCCC[C@H]2C(=O)OCCCCC2CCCCC2)cc(OC)c1OC [Compound 57] gave IC50 of 8 µM

Lab note: COc1ccc(C=CCCOC(=O)[C@@H]2CCCCN2C(=O)C(=O)c2cc(OC)c(OC)c(OC)c2)cc1 [Compound 90] gave IC50 of > 10 µM

Lab note: O=C(C(=O)N1CCCC[C@H]1C(=O)OCCCCc1ccccc1)c1cccc(-c2ccccc2)c1 [Compound 96] gave IC50 of > 10 µM

Lab note: C=CCOC(=O)Nc1ccc(CCCOC(=O)[C@@H]2CCCCN2C(=O)C(=O)c2cc(OC)c(OC)c(OC)c2)cc1 [Compound 88] gave IC50 of 4.5 µM

Lab note: COc1cccc(C(=O)C(=O)N2CCCC[C@H]2C(=O)OCc2ccccc2)c1 [Compound 9] gave IC50 of > 10 µM

Lab note: COc1ccc(/C=C/C(=O)C(=O)N2CCCC[C@H]2C(=O)OCc2ccccc2)cc1 [Compound 45] gave IC50 of > 10 µM
